# Tested on: HepaRG
# assay-info: LDH release cytotoxicity, % of total lysis control; higher = more cytotoxic
# test-settings: 0.1 µM; 48 h
quantity-name: LDH release cytotoxicity (%)
Field format: number, assumed %, no unit text.

Use these answered entries as a reference point.
C=C(C)C(N)=O [Methacrylamide]; -1.11
COCCOCCO [Diethylene glycol monomethyl ether]; -2.12
c1nc[nH]n1 [1H-1,2,4-Triazole]; 0.298
Cc1cn(C2C=CC(CO)O2)c(=O)[nH]c1=O (stereo unspecified) [Stavudine]; -0.277
CCCCC(CC)COP(=O)(OCC(CC)CCCC)OCC(CC)CCCC (stereo unspecified) [Tris(2-ethylhexyl) phosphate]; -1.14

Q: What LDH release cytotoxicity value was documented for this molecule, CCOP(=S)(OCC)SCSC(C)(C)C [Terbufos] ?
Ans: -0.712

###

# Tested on: HepaRG
# assay-info: LDH release cytotoxicity, % of total lysis control; higher = more cytotoxic
# test-settings: 100 µM; 48 h
quantity-name: LDH release cytotoxicity (%)
Field format: number, assumed %, no unit text.

Use these answered entries as a reference point.
COP(=O)(OC)SCn1c(=O)oc2cc(Cl)cnc21 [Azamethiphos]; 22.6
COCC(C)OCC(C)OCC(C)O (stereo not given) [Tripropylene glycol monomethyl ether]; 0.876

Q: What LDH release cytotoxicity value was documented for this compound, CCCCCCC(C=O)=Cc1ccccc1 [2-(Phenylmethylene)octanal] ?
Ans: -0.668

Q: For CCOP(=S)(OCC)Oc1nc(Cl)n(C(C)C)n1 [Isazofos] then?
Ans: 1.66

Q: For NC(=O)O [Ammonium carbamate] then?
Ans: 0.311

###

LDH release cytotoxicity listing for selected compounds.
# System: HepaRG
# assay-info: LDH release cytotoxicity, % of total lysis control; higher = more cytotoxic
# test-settings: 0.3162278 µM; 48 h
Field format: number, assumed %, no unit text.

Use these answered entries as a reference point.
CNC(=O)C1OC(n2cnc3c(NCc4cc(Cl)ccc4OCc4cc(C)no4)ncnc32)C(O)C1N (stereo not given); -1.92
[O-][Cl+]O [Sodium chlorite]; -0.973
CCNc1nc(Cl)nc(NC(C)(C)C#N)n1; -0.711
CCNc1nc(Cl)nc(NCC)n1; -2.13

Q: Notebook: pull reported LDH release cytotoxicity for HepaRG, entry COCc1cnc(C2=NC(C)(C(C)C)C(=O)N2)c(C(=O)O)c1 (stereo not given)
Ans: -1.61

Q: For CCCCCOC(=O)c1ccccc1C(=O)OCCCCC [Dipentyl phthalate] then?
Ans: -1.76

Q: For Nc1ccc(Nc2ccccc2)cc1 then?
Ans: -1.06

###

# Test system: HepaRG
# assay-info: LDH release cytotoxicity, % of total lysis control; higher = more cytotoxic
# test-settings: 0.3162278 µM; 48 h
quantity-name: LDH release cytotoxicity (%)
Field format: number, assumed %, no unit text.

Q: What LDH release cytotoxicity value was documented for this compound, C#CC1(O)CCC2C3CCc4cc(O)ccc4C3CCC21C (centres undefined) ?
Ans: -0.346

Q: For COc1ccc(OC(F)(F)F)cc1CNC1CCCNC1c1ccccc1 (centres undefined) then?
Ans: -1.38

Q: For Cc1cc(C)nc(Nc2ccccc2)n1 then?
Ans: -0.512

Q: For COc1cccc(C(=O)NN(C(=O)c2cc(C)cc(C)c2)C(C)(C)C)c1C [Methoxyfenozide] then?
Ans: -0.377

Q: For N#Cc1ccc(N(CC(N)=O)CC(F)(F)F)cc1C(F)(F)F then?
Ans: -1.03

Q: For O=c1c(-c2ccc(O)cc2)coc2cc(O)ccc12 [7,4'-Dihydroxyisoflavone] then?
Ans: -1.45

Q: For CCCN(CCC)c1c([N+](=O)[O-])cc(S(N)(=O)=O)cc1[N+](=O)[O-] then?
Ans: -0.725

Q: For O=C(Nc1ccccc1)Nc1ccnc(Cl)c1 then?
Ans: -0.719

Q: For OC1CCC(C2CCCCC2)CC1 (centres undefined) then?
Ans: -1.62
